Assay: physchem
Conditions: 22 °C, aqueous with cosolvent or surfactant or cyclodextrin
observable: solubility (µg/mL)

a = N[C@@H](CSSC[C@H](N)C(=O)O)C(=O)O [Cystine free Base, Cystine]
b = Cl.Cl.N[C@@H](CSSC[C@H](N)C(=O)O)C(=O)O [Cystine Dihydrochloride]
Dear colleague, could you let me know whether a or b has the lower recorded solubility? Thanks. Give the chosen item's label as your response.
a

* * *

Test: physchem
Details: 22 °C, water
observable: solubility (µg/mL)

I = Cl.Cl.N[C@@H](CSSC[C@H](N)C(=O)O)C(=O)O [Cystine Dihydrochloride]
II = N[C@@H](CS)C(=O)O [Cysteine free base, Cysteine]
III = N[C@@H](CSSC[C@H](N)C(=O)O)C(=O)O [Cystine free Base, Cystine]
Place the items in sequence of falling solubility. Would you mind listing the labels in the order requested?
II, I, III
